# credit: patent US20130204033A1

Tested on: 786-O
assay.text: 3H thymidine proliferation assay, 786-O
Assay type: cell-based, human
reported.conditions: Homo sapiens, 786-0; 3H thymidine method, 72 h incubation; read-out: EC50, 786-O
property.label: EC50
Enter the number, and then the unit.

Query: What EC50 value was documented for this compound, COc1cccc2c1C(=O)c1c(O)c3c(c(O)c1C2=O)C[C@@](O)(C(=O)CO)C[C@@H]3O[C@H]1C[C@H](N)[C@H](O)[C@H](C)O1 [Dox, doxorubicin, reference compound] ?
Reply: 168 nM

More entries:
Query: What EC50 value was documented for this compound, Nc1ccc(C(=O)Nc2ccc3[nH]c(C(=O)N4C[C@@H](CCl)c5c4cc(O)c4ccccc54)cc3c2)cc1 [CBI, reference compound] ?
Reply: 0.035 nM

----------
Tested on: OVCAR3
assay.text: ATP luminescence proliferation assay, OVCAR3
Format: cell-based, human
reported.conditions: ATP luminescence, OVCAR3, 72 h incubation; read-out: EC50 OVCAR3 (72 h)
property.label: EC50
Enter the number, and then the unit.

Query: Please provide the recorded EC50 for CC[C@H](C)[C@H](NC(=O)[C@H]1CCCCN1C)C(=O)N(COC)[C@H](C[C@@H](OC)c1nc(C(=O)N[C@@H](Cc2ccccc2)C(=O)OC)cs1)C(C)C [Compound 29c] , tested on OVCAR3.
Reply: 99 nM

----------
Tested on: SKOV3
assay.text: ATP luminescence proliferation assay, SKOV3
Type: cell-based, human
reported.conditions: Homo sapiens, SK-OV-3, 72 h, read-out: EC50 SKOV3 (72 h), ATP luminescence, SKOV3, 72 h incubation
For each record, check the reported EC50: if it is below 40 nM write 1 (yes), else write 0 (no).

Reference set, count: 3
Query: For `CC[C@H](C)[C@H](NC(=O)[C@H]1CCCCN1C)C(=O)N(C)[C@H](C[C@@H](OC)c1nc(C(=O)N[C@H](CC(=O)OC)Cc2ccccc2)cs1)C(C)C` , is the recorded EC50 below the cut-off of 40 nM?
Reply: 0 (no)

Query: For CC[C@H](C)[C@H](NC(=O)[C@H]1CCCCN1C)C(=O)N(COC(=O)CC(C)C)[C@H](C[C@@H](OC(C)=O)c1nc(C(=O)N[C@@H](Cc2ccc(N)cc2)CC(C)C(=O)O)cs1)C(C)C (some centres unmarked) , is the recorded EC50 below the cut-off of 40 nM?
Reply: 1 (yes)

Query: For `CC[C@H](C)[C@H](NC(=O)[C@H]1CCCCN1C)C(=O)N(C)[C@H](C[C@@H](OC)c1nc(C(=O)N[C@@H](Cc2ccccc2)C(=O)N[C@@H](C)C(=O)OC)cs1)C(C)C` , is the recorded EC50 below the cut-off of 40 nM?
Reply: 1 (yes)

More entries:
Query: For CC[C@H](C)[C@H](NC(=O)[C@H]1CCCCN1C)C(=O)N(C)[C@H](C[C@@H](OC(C)=O)c1nc(C(=O)N[C@@H](Cc2ccc(N)cc2)CC(C)C(=O)O)cs1)C(C)C (some centres unmarked) , is the recorded EC50 below the cut-off of 40 nM?
Reply: 0 (no)

Query: For `CC[C@H](C)[C@H](NC(=O)[C@H]1CCCCN1C)C(=O)N(C)[C@H](C[C@@H](OC)c1nc(C(=O)N[C@H](CCC(=O)OC)Cc2ccccc2)cs1)C(C)C` , is the recorded EC50 below the cut-off of 40 nM?
Reply: 1 (yes)
